Assay: Octanol-water partition coefficient, log P of the compound after 24 hrs by UV-Vis spectrophotometry
Assay type: physicochemical
READOUT LABEL: logP at 24 h
Numbers only.

# INPUT SMILES, logP at 24 h
measured = [
    ("COc1ccc2cc3[n+](cc2c1OCCN(CCn1cncc1[N+](=O)[O-])Cc1cccc(Cl)c1)CCc1cc2c(cc1-3)OCO2.[Cl-]", 0.54),
    ("COc1ccc2cc3[n+](cc2c1OCCN(CCn1cncc1[N+](=O)[O-])Cc1ccccc1Cl)CCc1cc2c(cc1-3)OCO2.[Cl-]", 0.56),
    ("COc1ccc2cc3[n+](cc2c1OCCN(CCn1cnc([N+](=O)[O-])c1)Cc1cccc(Cl)c1)CCc1cc2c(cc1-3)OCO2.[Cl-]", 0.57),
    ("COc1ccc2cc3[n+](cc2c1OCCN(CCn1cncc1[N+](=O)[O-])Cc1ccc(F)cc1F)CCc1cc2c(cc1-3)OCO2.[Cl-]", 0.52),
    ("COc1ccc2cc3[n+](cc2c1OCCN(CCn1cnc([N+](=O)[O-])c1)Cc1ccc(Cl)c(Cl)c1)CCc1cc2c(cc1-3)OCO2.[Cl-]", 0.53),
]

For every record below, what is its logP at 24 h?
1. COc1ccc2cc3[n+](cc2c1OCCN(CCn1cncc1[N+](=O)[O-])Cc1ccc(Cl)c(Cl)c1)CCc1cc2c(cc1-3)OCO2.[Cl-]
2. COc1ccc2cc3[n+](cc2c1OCCN(CCn1cnc([N+](=O)[O-])c1)Cc1ccccc1Cl)CCc1cc2c(cc1-3)OCO2.[Cl-]

1. 0.55
2. 0.51

Each recorded value in this set is attributed to ChEMBL document CHEMBL2401717.
